# target-entity: Fuc(a1-2)Gal3S(b1-4)GlcNAc
# assay-name: glycan array binding signal (z-score within array); higher = stronger binding
# test-conditions: glycan notation: IUPAC condensed, linker removed
About 410 targets per protein were measured; listed, in parts, are those with the strongest signals and a random draw of the rest.
parameter-measured: glycan array binding signal (z-score)
Just the number, please.

In the examples that follow, each entry is paired with its recorded glycan array binding signal (z-score).
Input: Give the measured glycan array binding signal (z-score) of Si Bti9 1b-HA (Solanum lycopersicum) (protein) MFESRPRSVLSLGVFVILVYLSSVPLPVNSQCNRGCDLALASFYVWRGSNLTLISEMFSTSIADIVSYNNRDNIPNQDSVIAGTRINIPFRCDCLNDGEVLGHAFPYRVKSGDTYDLVARNYSDLTTAQWMMKFNSYPENNIPNTVNLSVVVNCSCGNSDVSKDFGLFVTYPVRAEDNLTSVASAANVSEDIIRRYNPAAVSILDIGQGIIYIPGRDRNGNFPPLPTSTDGLSGGAKAPLFFNPAFLYKVVELKLAGRSRTSGYPYDVPDYAGYPYDVPDYALEVLFQ .
Output: -0.035

Input: Give the measured glycan array binding signal (z-score) of PhypaEULS3 (Physcomitrella patens) (protein) MLPVRLHCKADPNFNLAAVPGQGPVMVPFSPNDDFQVWYKDVTMSTRVKDETGSSAFSLINKATGQALRHAPEDLAQCLLADYDSNALDQTVLWTMSEDMGQGYCCIRLASQITRNLDVFRGDKKSGGVKEGSPVITFAWKKQDNQIWKMITAILEQKLISEEDLNSAVDHHHHHH .
Output: -0.262

More entries:
Input: Give the measured glycan array binding signal (z-score) of LICBM33A (Lactococcus lactis), Q9CE94 (protein) MKKLLTGLLVAAGLLSVSLLIKTDTVSAHGYVQSPPARGYQGQLDSQSLGWTAAFNIYGNVISNPQSLEAPKGFPECGPADGRIASANGGLGQIGDFVLDNQTSSRWKKTSISTGSNIFTWKYTAPHKTTKWHYYMTKTGWDQNAPLKHSELELIGTINHDGSPATNNLSHTINIPTDRSGYHIVLAVWDVADTSNAFYNVIDINVNNKNASSQVFGPFL .
Output: 3.62
